Reference source for all entries: patent US20250326748A1

Tested on: MYB mRNA
run-description: Splicing RT-qPCR assay, MYB canonical (CJ) and alternative (AJ) junction mRNA
Type: cell-based, human
assay-conditions: Homo sapiens, canonical junction mRNA, qPCR panel; read-out: MYB CJ (decrease in CJ mRNA levels, IC50)
pIC50: −log10 of the molar value.
Here, each record is paired with measured pIC50 data.
property: pIC50

{"columns": ["molecule", "experimental-target", "property", "reported"],
 "data": [
  ["CN(c1cnc2nc(-c3cc(F)c4nn(C)cc4c3)ccc2c1)[C@@H]1CCNC1 [Compound 366]", "MYB mRNA", "pIC50", "5.00 to 6.00"],
  ["CCN[C@H]1CCN(c2cnc3nc(-c4cc5cn(C)nc5cc4O)cc(Cl)c3c2)C1 [Compound 318]", "MYB mRNA", "pIC50", "> 7.00"],
  ["C[C@H]1CN(c2cnc3nc(-c4cc(F)c5nn(C)cc5c4)ccc3c2)CCN1 [Compound 373]", "MYB mRNA", "pIC50", "6.00 to 7.00"],
  ["CCNC1CCN(c2cnc3nc(-c4cc5cn(C)nc5c(F)c4O)ccc3c2)C1 (stereo not shown) [Compound 106]", "MYB mRNA", "pIC50", "> 7.00"],
  ["CC1CN(c2cnc3nc(-c4cc(F)c5nn(C)cc5c4)cc(Cl)c3c2)CCN1 (stereo not shown) [Compound 203, 2,2,2-trifluoroacetate]", "MYB mRNA", "pIC50", "6.00 to 7.00"],
  ["C[C@@H]1CN(c2cnc3nc(-c4cc5cn(C)nc5cc4O)cc(Cl)c3c2)CC2(CC2)N1 [Compound 378]", "MYB mRNA", "pIC50", "6.00 to 7.00"],
  ["CN(C)[C@@H]1CCN(c2cnc3nc(-c4cc5cn(C)nc5c(F)c4O)cc(Cl)c3c2)C1 [Compound 220]", "MYB mRNA", "pIC50", "> 7.00"],
  ["Cc1c(O)c(-c2cc(Cl)c3cc(N4C[C@@H](C)NC5(CC5)C4)cnc3n2)cc2cn(C)nc12 [Compound 399]", "MYB mRNA", "pIC50", "> 7.00"],
  ["CN1CCC[C@@H]2CN(c3cnc4nc(-c5cc6cn(C)nc6c(F)c5O)cc(Cl)c4c3)C[C@@H]21 [Compound 303]", "MYB mRNA", "pIC50", "6.00 to 7.00"],
  ["Cn1cc2cc(-c3cnc4cc(C5CCNCC5)cc(F)c4n3)c(O)c(F)c2n1 [Compound 164]", "MYB mRNA", "pIC50", "> 7.00"],
  ["CN(C)C1CCN(c2ccc3nc(-c4cc5cn(C)nc5c(F)c4O)cnc3c2)CC1 [Compound 360]", "MYB mRNA", "pIC50", "> 7.00"],
  ["COc1nc(-c2cc3cn(C)nc3c(C)c2O)nc2ncc(N3CCC(N(C)C)CC3)cc12 [Compound 163]", "MYB mRNA", "pIC50", "6.00 to 7.00"],
  ["Cc1c(N2C[C@@H](C)N[C@@H](C)C2)cnc2nc(-c3cc4cn(C)nc4cc3O)ccc12 [Compound 487]", "MYB mRNA", "pIC50", "5.00 to 6.00"],
  ["Cc1cn2nc(-c3cc(Cl)c4cc(N5CCC(N6CCC6)CC5)cnc4n3)cc(C)c2n1 [Compound 349]", "MYB mRNA", "pIC50", "6.00 to 7.00"],
  ["CN(c1cnc2nc(-c3cc4cn(C)nc4c(F)c3O)ccc2c1)C1CCNCC1 [Compound 284]", "MYB mRNA", "pIC50", "6.00 to 7.00"],
  ["CNC1CCN(c2cnc3nc(-c4cc5cn(C)nc5c(C)c4O)nc(OC)c3c2)C1 (stereo not shown) [Compound 161]", "MYB mRNA", "pIC50", "> 7.00"],
  ["Cc1c(O)c(-c2cc(-c3nnc[nH]3)c3cc(N4C[C@@H](C)N[C@@H](C)C4)cnc3n2)cc2cn(C)nc12 [Compound 261]", "MYB mRNA", "pIC50", "> 7.00"],
  ["CN(c1cnc2nc(-c3cc(F)c4nn(C)cc4c3)ccc2c1)[C@H]1CCNC1 [Compound 367]", "MYB mRNA", "pIC50", "5.00 to 6.00"],
  ["Cc1c(O)c(-c2ncc3cc(N4C[C@@H](C)N[C@@H](C)C4)cnc3n2)cc2cn(C)nc12 [Compound 214]", "MYB mRNA", "pIC50", "6.00 to 7.00"]
]}
